B1: Osa-1-4 twister ribozyme (parent)
chain: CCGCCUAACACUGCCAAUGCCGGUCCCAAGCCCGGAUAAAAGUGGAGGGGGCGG

Variants of: B1
Assay: self-cleavage, relative activity (ratio to wild type); higher = more cleavage; co-transcriptional

SEQUENCE RECORD: CCGCCUAACACUGCCAUUGCCGGUCGCAAGCCCGGAUAAAAGUGGAGGGGGCGG [A17U C26G]
self-cleavage: 0.09
//
SEQUENCE RECORD: CCGCCUAACACUGCCAAUGCCGGCCCCAAGCCCGGAUAAAUGUGGAGGGGGCGG [A41U U24C]
self-cleavage: 0.27
//
SEQUENCE RECORD: CCGCCUAACACUGGCAAUGCCGGUCCCAAGCCCGGAUAAAAGCGGAGGGGGCGG [C14G U43C]
self-cleavage: 0.07
//
SEQUENCE RECORD: CCGCCUAACACUGCGAAUGCCGGUCCCAAGCCCGGCUAAAAGUGGAGGGGGCGG [A36C C15G]
self-cleavage: 0.25
//
SEQUENCE RECORD: CCGCCUAACACUGCCAAUGCCGGUCCCAAGGCCGGAUUAAAGUGGAGGGGGCGG [A38U C31G]
self-cleavage: 0.08
//
SEQUENCE RECORD: CCGCCUAACACUGCCAAUGCCGGUCCCAAGCCCGGAGAAAAGUGGUGGGGGCGG [A46U U37G]
self-cleavage: 0.11
//
SEQUENCE RECORD: CCGCCUAACACUCCCAAUGCCGGUCCCAAGCCCGGAUGAAAGUGGAGGGGGCGG [A38G G13C]
self-cleavage: 0.03
//
SEQUENCE RECORD: CCGCCUAACUCUGCCAAUGCCGGUCCCAAGCACGGAUAAAAGUGGAGGGGGCGG [A10U C32A]
self-cleavage: 0.01
//
SEQUENCE RECORD: CCGCCUAACACUGCCUAUGCCGGUCCCCAGCCCGGAUAAAAGUGGAGGGGGCGG [A16U A28C]
self-cleavage: 0.91
//
SEQUENCE RECORD: CCGCCUAACACUGCCAAUGCCGGUCCCAAGCCCGGAUGAACGUGGAGGGGGCGG [A38G A41C]
self-cleavage: 0.98
//
SEQUENCE RECORD: CCGCCUAACACUGCCAAUGCCGGUCCCAAGCCCGGAUAAAAGUGGGGGCGGCGG [A46G G49C]
self-cleavage: 0.03
//
SEQUENCE RECORD: CCGCCUAACACUGCCAAUGCCGCUCCCAAGCCCGGAUAAGAGUGGAGGGGGCGG [A40G G23C]
self-cleavage: 0.06
//
SEQUENCE RECORD: CCGCCUAACAUUGCCAAUGCCGGUCCCAAGUCCGGAUAAAAGUGGAGGGGGCGG [C11U C31U]
self-cleavage: 0.37
//
SEQUENCE RECORD: CCGCCUAACACUGCCAAUGCCGGUCCCAAGCCCGGAUCAAAGUGGAGGCGGCGG [A38C G49C]
self-cleavage: 0.06
//
SEQUENCE RECORD: CCGCCUAACACUGCCAAUGCCGGUCCCAAGCCCUGAUUAAAGUGGAGGGGGCGG [A38U G34U]
self-cleavage: 0.77
//
SEQUENCE RECORD: CCGCCUAACACUGCCAAUGGCGGCCCCAAGCCCGGAUAAAAGUGGAGGGGGCGG [C20G U24C]
self-cleavage: 0.11
//
SEQUENCE RECORD: CCGCCUAACACUGCCGAUGCCGGUCGCAAGCCCGGAUAAAAGUGGAGGGGGCGG [A16G C26G]
self-cleavage: 0.13
//
SEQUENCE RECORD: CCGCCUACCACUGCCAAUGCCGGUCCCAUGCCCGGAUAAAAGUGGAGGGGGCGG [A29U A8C]
self-cleavage: 0.04
//
SEQUENCE RECORD: CCGCCUAACACUGCCAAUGCCGUUCCCAAGCCCGGAUAAAAGUGGAGGGGGCGC [G23U G54C]
self-cleavage: 0.08
//
SEQUENCE RECORD: CCGCCUAACAAUGCCAAUGCCGGUCCCAAGCCCGGAUAAAAGUGGAGUGGGCGG [C11A G48U]
self-cleavage: 0.05
//
SEQUENCE RECORD: CCGCCUAACACUGCCAAUACCAGUCCCAAGCCCGGAUAAAAGUGGAGGGGGCGG [G19A G22A]
self-cleavage: 0.35
//
SEQUENCE RECORD: CCGCCUAACACUGCCAAUGCCGGUCCCAAGCCCGGAUAAAUCUGGAGGGGGCGG [A41U G42C]
self-cleavage: 0.2
//
SEQUENCE RECORD: CCGCCUAACACUGCCAAUGCCGGUCCCAAGCCCGGAUAAAACUGCAGGGGGCGG [G42C G45C]
self-cleavage: 0.06
//
SEQUENCE RECORD: CCGCCUAACACUGCCAAUGCCGGGCCCUAGCCCGGAUAAAAGUGGAGGGGGCGG [A28U U24G]
self-cleavage: 0.02
//
SEQUENCE RECORD: CCGCCUAACACUGCCAAUGCCGGUCCCAAGCCCGGAUAAAAAUGGAGGGGGCUG [G42A G53U]
self-cleavage: 0.19
//
SEQUENCE RECORD: CCGCCUAACACUGCCAAUGCCAGUCCCAAGCCCGAAUAAAAGUGGAGGGGGCGG [G22A G35A]
self-cleavage: 0.34
//
SEQUENCE RECORD: CCGCCUAACUCUGCCAAUGGCGGUCCCAAGCCCGGAUAAAAGUGGAGGGGGCGG [A10U C20G]
self-cleavage: 0.03
//
SEQUENCE RECORD: CCGCCUAACACUGCCAAUACCGGUCCCAGGCCCGGAUAAAAGUGGAGGGGGCGG [A29G G19A]
self-cleavage: 0.08
//
SEQUENCE RECORD: CCGCCUAACACUGCCAAUGCCGUUCCCAGGCCCGGAUAAAAGUGGAGGGGGCGG [A29G G23U]
self-cleavage: 0.05
//
SEQUENCE RECORD: CCGCCUAACACUGCCAAUGCCGGUCCCAAGCCCGGAUAGAAAUGGAGGGGGCGG [A39G G42A]
self-cleavage: 0.37
//
SEQUENCE RECORD: CCGCCUAACACUGUCAAUGCCGGUCUCAAGCCCGGAUAAAAGUGGAGGGGGCGG [C14U C26U]
self-cleavage: 0.11
//
SEQUENCE RECORD: CCGCCUAACACUGCCAAUGCCGGUCCCAAGCCCGGAUAAAACUGGAGGGGGCGA [G42C G54A]
self-cleavage: 0.26
//
SEQUENCE RECORD: CCGCCUAACACUGCCAAUGCCGGUCCCAAACCCGGAUAAAAGGGGAGGGGGCGG [G30A U43G]
self-cleavage: 0.04
//
SEQUENCE RECORD: CCGCCUAACACUGCGAAUGGCGGUCCCAAGCCCGGAUAAAAGUGGAGGGGGCGG [C15G C20G]
self-cleavage: 0.08
//
SEQUENCE RECORD: CCGCCUAACACUGCCAAUGCCAGUCCCAAGCCCGUAUAAAAGUGGAGGGGGCGG [G22A G35U]
self-cleavage: 0.32
//
SEQUENCE RECORD: CCGCCUAGCACAGCCAAUGCCGGUCCCAAGCCCGGAUAAAAGUGGAGGGGGCGG [A8G U12A]
self-cleavage: 0.16
//
SEQUENCE RECORD: CCGCCUAACACUGCCAAUGCCGGUCCCAAGCCCGGAUAACAGUGGAGGGUGCGG [A40C G50U]
self-cleavage: 0.07
//
SEQUENCE RECORD: CCGCCUAACACUACCAAUGCCGGUCCCAAGCCCGGAUAAAAGUGGAGGGUGCGG [G13A G50U]
self-cleavage: 0.08
//
SEQUENCE RECORD: CCGCCUAACACUCCCAAAGCCGGUCCCAAGCCCGGAUAAAAGUGGAGGGGGCGG [G13C U18A]
self-cleavage: 0.03
//
SEQUENCE RECORD: CCGCCUAACACCGCCAAUGCCGGUCCCAAGCCCGGAUAAAAGUGGAGGGGGGGG [C52G U12C]
self-cleavage: 0.58
//
SEQUENCE RECORD: CCGCCUAACACUGCCAAUGCCGGUCCCAAGCCCGGAUAAAAGUUGAGGGGACGG [G44U G51A]
self-cleavage: 0.69
//
SEQUENCE RECORD: CCGCCUAACACUGCCAAUGCCGGUCCCGAGCCCGGAUAAAAGUCGAGGGGGCGG [A28G G44C]
self-cleavage: 0.12
//
SEQUENCE RECORD: CCGCCUAACACUGCCAAUGCCGGUCCCAAGCCCGGAUAAAAGUGGAGCGAGCGG [G48C G50A]
self-cleavage: 0.3
//
SEQUENCE RECORD: CCGCCUAACGCUGCCAAUGCCGGUCCCAAGCCCGAAUAAAAGUGGAGGGGGCGG [A10G G35A]
self-cleavage: 0.41
//
SEQUENCE RECORD: CCGCCUAACACUGCCAACGCCGGUCCCAAGCCCGGAUAAAAGUGGAGGGGGGGG [C52G U18C]
self-cleavage: 0.93
//
SEQUENCE RECORD: CCGCCUAACACUGCCAAUGCCGGUCCCAGCCCCGGAUAAAAGUGGAGGGGGCGG [A29G G30C]
self-cleavage: 0.03
//
SEQUENCE RECORD: CCGCCUAACACUGGCAAUGCCGGUCCCAAGACCGGAUAAAAGUGGAGGGGGCGG [C14G C31A]
self-cleavage: 0.02
//
SEQUENCE RECORD: CCGCCUAACACUGCCAAUGCCGAUCCCAAGCCCGGAUAAAAGUGGACGGGGCGG [G23A G47C]
self-cleavage: 0.06
//
SEQUENCE RECORD: CCGCCUAACACUACCAAUGCCGGACCCAAGCCCGGAUAAAAGUGGAGGGGGCGG [G13A U24A]
self-cleavage: 0.05
//
SEQUENCE RECORD: CCGCCUAACACUGCCAAUGCCGGUCCCAAGCCCGGAGAAAAGUGGAGGGGGCGA [G54A U37G]
self-cleavage: 1
//
SEQUENCE RECORD: CCGCCUAACACUGCCAAUGCCGGUCCCAAGCCCGGAUUAAAGUGGUGGGGGCGG [A38U A46U]
self-cleavage: 0.07
//
SEQUENCE RECORD: CCGCCUAACACUGCCAAUGCCGGUCCCAAGCCCGGAUAAACGUGGCGGGGGCGG [A41C A46C]
self-cleavage: 0.05
//
SEQUENCE RECORD: CCGCCUAACACUGCCAAUGCCGGUUCCAAGCCCGGAUAAACGUGGAGGGGGCGG [A41C C25U]
self-cleavage: 0.8
//
SEQUENCE RECORD: CCGCCUAACACUGCCAAUGCCGGUCCCAAGCCCGGAUAAAAGUGGUGGGGGCCG [A46U G53C]
self-cleavage: 0.05
//
SEQUENCE RECORD: CCGCCUAACACUGCCAAUGCCGGUCCCAAGCCCGGAUAAAAUUGGAGGGGACGG [G42U G51A]
self-cleavage: 0.1
//
SEQUENCE RECORD: CCGCCUUACACUGCCAAUGCCGGUCCCAAGCCCGGAUAAAAGUGGGGGGGGCGG [A46G A7U]
self-cleavage: 0.01
//
SEQUENCE RECORD: CCGCCUAACACUGCCAAUGCCGGACCCAAGCCGGGAUAAAAGUGGAGGGGGCGG [C33G U24A]
self-cleavage: 0.04
//
SEQUENCE RECORD: CCGCCUAACACGGCCAAUGCCGGUCCCAAGCCCGGAUAAAAGUUGAGGGGGCGG [G44U U12G]
self-cleavage: 0.15
//
SEQUENCE RECORD: CCGCCUAACACUGCCAAUGCCGGUCCCAAGCCCGGGUAAAAGUGAAGGGGGCGG [A36G G45A]
self-cleavage: 0.54
//
SEQUENCE RECORD: CCGCCUAACACUGCCAAUGCCUGUCCCAAGCCCGGAUAAAAGUGGACGGGGCGG [G22U G47C]
self-cleavage: 0.05
//
SEQUENCE RECORD: CCGCCUAAUACUGCCAAUGCCGGUCCCAAUCCCGGAUAAAAGUGGAGGGGGCGG [C9U G30U]
self-cleavage: 0.02
//
SEQUENCE RECORD: CCGCCUAAGACAGCCAAUGCCGGUCCCAAGCCCGGAUAAAAGUGGAGGGGGCGG [C9G U12A]
self-cleavage: 0.13
//
SEQUENCE RECORD: CCGCCUAACACUGCGAAUGCCGGUCCCAAGCCCGGAUAAAAGUGGAGGGGGCGA [C15G G54A]
self-cleavage: 0.19
//
SEQUENCE RECORD: CCGCCUAACACUGCCAAUGCCGGUUCCAAGCCCGGAUAAAAGUCGAGGGGGCGG [C25U G44C]
self-cleavage: 0.84
//
SEQUENCE RECORD: CCGCCUCACACUGCCAAUGCCGGUCCCAAGCCCCGAUAAAAGUGGAGGGGGCGG [A7C G34C]
self-cleavage: 0.04
//
SEQUENCE RECORD: CCGCCUAACACUGCGAAUGCCGGUCCCAAGCCCGGAUAAAAGUGGAGGGGGCAG [C15G G53A]
self-cleavage: 0.13
//
SEQUENCE RECORD: CCGCCUAACACUGCCAAAGCCGGUCCCAAGCCCGGAUAAAAAUGGAGGGGGCGG [G42A U18A]
self-cleavage: 0.71
//
SEQUENCE RECORD: CCGCCUAACAGUGCCAAUGCCGGUCCCAAGCCCGGAUAAAAGUCGAGGGGGCGG [C11G G44C]
self-cleavage: 0.11
//
SEQUENCE RECORD: CCGCCUAACACUGCCAAUGCCGCUCCCAAGCCCGGAGAAAAGUGGAGGGGGCGG [G23C U37G]
self-cleavage: 0.05
//
SEQUENCE RECORD: CCGCCUAACUCUGCCAAUGCCGGUCCGAAGCCCGGAUAAAAGUGGAGGGGGCGG [A10U C27G]
self-cleavage: 0.04
//
SEQUENCE RECORD: CCGCCUAACACUGCCAAUGCCGGUCGCAAGCACGGAUAAAAGUGGAGGGGGCGG [C26G C32A]
self-cleavage: 0.03
//
SEQUENCE RECORD: CCGCCUAACACUGCCAAUACCGGUCCCAAGCCAGGAUAAAAGUGGAGGGGGCGG [C33A G19A]
self-cleavage: 0.07
